Please go through the items and note down their IC50.
System: T47D cells
Experiment: Cell viability (cell kill) assay
Format: cell-based
Settings: T47D; Table 19; read-out: IC50
Give bare numbers, in nM.

Below, each entry is followed by its recorded IC50 result.
molecule: H1H6953N-mc-VC-PAB-MeNHC3-May (conjugate) VH: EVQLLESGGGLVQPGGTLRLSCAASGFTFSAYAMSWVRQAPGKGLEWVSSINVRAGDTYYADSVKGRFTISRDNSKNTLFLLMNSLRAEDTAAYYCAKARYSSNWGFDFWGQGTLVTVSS VL: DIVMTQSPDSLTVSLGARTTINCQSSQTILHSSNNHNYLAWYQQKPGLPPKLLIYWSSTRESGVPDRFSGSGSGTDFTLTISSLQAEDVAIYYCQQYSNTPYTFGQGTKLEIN
measure: IC50
numeric_value: 1
//
molecule: H1H6953N-mc-VC-PAB-MMAE (conjugate) VH: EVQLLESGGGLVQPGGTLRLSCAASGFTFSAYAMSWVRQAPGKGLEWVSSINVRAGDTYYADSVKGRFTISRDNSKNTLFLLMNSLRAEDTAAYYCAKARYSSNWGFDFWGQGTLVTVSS VL: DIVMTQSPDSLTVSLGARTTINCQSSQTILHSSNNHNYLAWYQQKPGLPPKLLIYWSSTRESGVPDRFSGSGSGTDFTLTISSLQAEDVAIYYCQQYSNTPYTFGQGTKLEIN
measure: IC50
numeric_value: 1

For the next question, use this molecule.
The recorded IC50 for entry H1H6953N-SMCC-DM1 (conjugate) VH: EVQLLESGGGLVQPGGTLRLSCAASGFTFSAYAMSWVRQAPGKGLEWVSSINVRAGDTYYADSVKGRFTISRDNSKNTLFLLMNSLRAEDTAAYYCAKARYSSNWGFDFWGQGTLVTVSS VL: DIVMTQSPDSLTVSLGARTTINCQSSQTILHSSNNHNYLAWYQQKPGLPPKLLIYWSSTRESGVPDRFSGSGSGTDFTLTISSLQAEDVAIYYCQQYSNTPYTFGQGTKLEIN equals 1.5
